Data provenance is paper PMC2217618.

- Target Or System: αvβ3 integrin (human (endogenous in HUVEC), UniProt P06756;P05106)
- Sequence (P06756 31-1048, chain 1 of 2): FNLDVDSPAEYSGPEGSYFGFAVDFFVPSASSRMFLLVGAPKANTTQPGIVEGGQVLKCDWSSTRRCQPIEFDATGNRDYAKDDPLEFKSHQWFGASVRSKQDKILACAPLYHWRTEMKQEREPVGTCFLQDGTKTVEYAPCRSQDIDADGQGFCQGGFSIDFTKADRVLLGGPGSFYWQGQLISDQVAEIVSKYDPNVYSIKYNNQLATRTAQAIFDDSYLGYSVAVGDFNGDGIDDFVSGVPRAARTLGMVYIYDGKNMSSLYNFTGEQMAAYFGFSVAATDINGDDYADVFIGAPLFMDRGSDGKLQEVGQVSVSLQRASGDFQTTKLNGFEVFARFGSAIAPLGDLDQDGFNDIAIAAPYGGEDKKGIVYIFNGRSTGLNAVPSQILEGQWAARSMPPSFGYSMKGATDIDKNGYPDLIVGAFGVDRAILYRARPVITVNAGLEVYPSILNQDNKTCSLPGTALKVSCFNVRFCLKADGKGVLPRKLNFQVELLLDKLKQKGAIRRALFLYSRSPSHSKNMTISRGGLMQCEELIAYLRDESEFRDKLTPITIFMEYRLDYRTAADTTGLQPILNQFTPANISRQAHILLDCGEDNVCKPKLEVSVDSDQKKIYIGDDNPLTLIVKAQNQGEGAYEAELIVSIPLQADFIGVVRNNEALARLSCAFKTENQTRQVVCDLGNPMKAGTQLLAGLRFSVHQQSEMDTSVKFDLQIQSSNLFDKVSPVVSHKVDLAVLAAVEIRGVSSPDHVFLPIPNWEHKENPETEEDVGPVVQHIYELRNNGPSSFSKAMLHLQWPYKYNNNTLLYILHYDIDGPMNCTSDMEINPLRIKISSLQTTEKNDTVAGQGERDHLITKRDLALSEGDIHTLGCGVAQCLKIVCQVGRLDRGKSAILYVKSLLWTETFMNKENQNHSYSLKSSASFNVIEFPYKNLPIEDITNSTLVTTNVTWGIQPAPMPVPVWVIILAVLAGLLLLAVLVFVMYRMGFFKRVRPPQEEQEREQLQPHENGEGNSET
- Sequence (P05106 27-788, chain 2 of 2): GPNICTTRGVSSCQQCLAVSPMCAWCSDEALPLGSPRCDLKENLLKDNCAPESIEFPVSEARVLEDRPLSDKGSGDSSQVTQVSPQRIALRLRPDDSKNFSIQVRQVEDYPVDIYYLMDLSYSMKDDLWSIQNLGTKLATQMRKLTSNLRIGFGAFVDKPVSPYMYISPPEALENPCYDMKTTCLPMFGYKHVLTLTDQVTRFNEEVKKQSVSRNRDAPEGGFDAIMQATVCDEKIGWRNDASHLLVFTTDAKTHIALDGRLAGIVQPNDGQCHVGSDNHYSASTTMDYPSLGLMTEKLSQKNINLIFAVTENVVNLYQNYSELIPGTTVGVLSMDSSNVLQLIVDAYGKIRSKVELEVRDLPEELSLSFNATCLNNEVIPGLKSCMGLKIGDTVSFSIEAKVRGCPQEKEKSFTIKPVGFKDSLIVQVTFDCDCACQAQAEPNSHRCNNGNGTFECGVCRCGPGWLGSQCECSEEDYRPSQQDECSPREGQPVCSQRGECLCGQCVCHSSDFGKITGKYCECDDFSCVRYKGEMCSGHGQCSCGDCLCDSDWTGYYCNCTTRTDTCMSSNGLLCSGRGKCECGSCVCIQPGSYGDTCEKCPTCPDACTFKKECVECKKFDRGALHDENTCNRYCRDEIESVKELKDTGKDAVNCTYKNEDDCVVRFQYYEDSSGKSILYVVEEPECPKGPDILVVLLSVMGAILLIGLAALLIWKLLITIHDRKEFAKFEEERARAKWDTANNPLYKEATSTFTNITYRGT
- Protocol: radioligand binding
[ ]: non-standard residue; d: D form.
Quantity: IC50 (µM)

> print(dat)
                                     binder  quantity  unit.tag  recorded.number
1  cyclo(RGD[dF]K(S‑acetylthioacetyl)) [RGD peptide c(RGDf(ε-S-acetylthioacetyl)K)]      IC50        µM            0.383
